test-system: H^+ /K^+ ATPase (Oryctolagus cuniculus, UniProt P27112)
Construct: Rabbit gastric glands are isolated from gastric mucosa; from tissue; host or cells: rabbit isolated gastric glands (gastric mucosa, corpus region of the stomach)
Sequence (P27112 whole entry): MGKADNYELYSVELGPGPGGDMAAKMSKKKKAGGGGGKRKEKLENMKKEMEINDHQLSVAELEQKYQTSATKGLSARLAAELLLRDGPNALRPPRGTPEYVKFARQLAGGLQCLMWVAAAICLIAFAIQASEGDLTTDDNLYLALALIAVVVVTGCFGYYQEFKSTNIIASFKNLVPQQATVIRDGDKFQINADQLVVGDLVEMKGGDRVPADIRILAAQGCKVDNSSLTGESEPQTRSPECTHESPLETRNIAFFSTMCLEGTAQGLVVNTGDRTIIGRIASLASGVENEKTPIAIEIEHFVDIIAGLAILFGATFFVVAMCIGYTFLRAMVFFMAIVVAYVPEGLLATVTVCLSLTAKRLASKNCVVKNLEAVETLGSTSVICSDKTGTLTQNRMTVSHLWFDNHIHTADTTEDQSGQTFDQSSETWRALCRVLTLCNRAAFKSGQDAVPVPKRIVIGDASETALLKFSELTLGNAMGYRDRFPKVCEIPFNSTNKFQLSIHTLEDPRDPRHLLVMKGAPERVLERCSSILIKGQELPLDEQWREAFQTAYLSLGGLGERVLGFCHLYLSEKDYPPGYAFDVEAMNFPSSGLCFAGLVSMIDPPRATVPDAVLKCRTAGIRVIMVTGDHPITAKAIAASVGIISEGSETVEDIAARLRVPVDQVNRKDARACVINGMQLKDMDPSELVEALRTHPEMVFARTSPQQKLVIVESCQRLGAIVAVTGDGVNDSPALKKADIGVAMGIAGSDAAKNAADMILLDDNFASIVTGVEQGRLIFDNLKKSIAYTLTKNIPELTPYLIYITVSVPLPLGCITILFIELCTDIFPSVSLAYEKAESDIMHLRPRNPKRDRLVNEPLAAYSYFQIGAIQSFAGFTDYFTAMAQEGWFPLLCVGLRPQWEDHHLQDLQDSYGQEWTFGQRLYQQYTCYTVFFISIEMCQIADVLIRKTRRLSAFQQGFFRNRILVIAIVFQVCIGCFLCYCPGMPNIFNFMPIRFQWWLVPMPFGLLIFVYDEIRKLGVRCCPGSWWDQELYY
Sequence (P18597 whole entry partner): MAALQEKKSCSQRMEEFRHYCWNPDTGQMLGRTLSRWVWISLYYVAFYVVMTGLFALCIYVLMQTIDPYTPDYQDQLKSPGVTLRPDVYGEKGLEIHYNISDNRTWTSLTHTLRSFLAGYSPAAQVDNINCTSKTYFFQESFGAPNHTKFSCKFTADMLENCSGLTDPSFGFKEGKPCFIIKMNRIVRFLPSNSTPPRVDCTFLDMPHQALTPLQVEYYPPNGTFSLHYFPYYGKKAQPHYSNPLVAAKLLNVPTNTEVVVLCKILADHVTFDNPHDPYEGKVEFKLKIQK
experimental-details: Inhibition of 14C-aminopyrine uptake in rabbit isolated gastric glands stimulated by DBcAMP or high K+ (anti-secretory activity)
Format: cell-based
condition-set: result in words in the introduction; test not named
reported-property: antisecretory activity

compound	readout-value
Nc1cccc(NC(=O)c2cc[n+]([O-])cc2)c1 [Example 3-amino, reference compound]	inactive
O=C(Nc1ccccc1)c1cc[n+]([O-])cc1 [phenyl, reference compound]	not active
Nc1ccc(NC(=O)c2cc[n+]([O-])cc2)cc1 [4-amino, reference compound]	inactive
O=C(Nc1ccccc1Cl)c1cc[n+]([O-])cc1 [2-chlorophenyl, reference compound]	not active
